Origin of measurements: patent US8563550B2

Would you kindly list inhibition at 10 µM for each of these compounds?
target: PIM-1 (Homo sapiens); construct: histidine tag (C); made in house; assay: PIM-1 biochemical assay (ADP Hunter assay kit); settings: compound concentration 10 μM; approximate values; read-out: Percentage Inhibition of PIM-1 at 10 μM
Sequence (P11309 whole entry): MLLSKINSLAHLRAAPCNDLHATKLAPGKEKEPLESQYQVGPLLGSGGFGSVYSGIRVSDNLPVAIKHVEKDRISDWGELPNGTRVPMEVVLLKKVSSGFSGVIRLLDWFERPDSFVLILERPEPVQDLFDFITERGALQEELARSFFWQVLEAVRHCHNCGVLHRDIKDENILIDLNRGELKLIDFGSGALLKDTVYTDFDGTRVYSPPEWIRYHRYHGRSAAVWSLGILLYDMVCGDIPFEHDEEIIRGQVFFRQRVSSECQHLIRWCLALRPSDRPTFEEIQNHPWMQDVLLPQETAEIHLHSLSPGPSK
Answers are plain numbers, in %.

CN(C)c1cccc(-c2cnc3sc(NCC4CCOCC4)nn23)c1 [34(16)]; 99
COc1ccc(CNc2nn3c(-c4ccc5ccccc5c4)cnc3s2)cc1 [34(12)]; 58
CC(C)CNc1nn2c(-c3cccc(N(C)C)c3)cnc2s1 [34(3)]; 97
c1ccc(OCCNc2nn3c(-c4ccc5ccccc5c4)cnc3s2)cc1 [34(4)]; 71

# evaluate next
Prompt line: // lookup inhibition at 10 µM for CC(=O)c1cccc(-c2cnc3sc(NCc4cccs4)nn23)c1 [34(22)]
Response line: 82
